Entries and their IC50 values follow.
Target: CaV2.2 (Homo sapiens)
Construct: expressed in transfected cells; host or cells: HEK293
Assay: VIPR optical membrane potential assay with electrical stimulation
Assay type: cell-based
Conditions: Table 3, biological assay data; read-out: IC50
Description: Antagonist properties of test compounds were assessed as follows. Cells expressing the CaV of interest were placed into microtiter plates. […] The cells were stimulated with electrical means to evoke a CaV dependent membrane potential change from unblocked channels, which was detected and measured with trans-membrane potential-sensitive dyes. Antagonists were detected as a decreased membrane potential response to the stimulus. […] Allow solution to sit for 10 minutes. […] Run plate on the optical reader. […]

| Molecule | IC50 |
| --- | --- |
| CCNC(=O)c1oc2ccc(S(=O)(=O)N3CCC(C)CC3)cc2c1C | 5 to 20 µM |
| Cc1c(C(=O)NC(C)C)oc2ccc(S(=O)(=O)N3CCC(C)CC3)cc12 | < 5 µM |
| Cc1c(C(=O)N2CC(C)OC(C)C2)oc2ccc(S(=O)(=O)N3CCC(C)CC3)cc12 (centres unmarked) | 5 to 20 µM |

Could you now consider this next molecule?
query: // fetch IC50 given entry Cc1c(C(=O)N2CC(C)CC(C)C2)[nH]c2ccc(S(=O)(=O)N3CCC(C)CC3)cc12 (centres unmarked)
result: 5 to 20 µM

* * *

Entries and their pIC50 values follow.
Target: CaV2.2 (Homo sapiens, UniProt Q00975)
Construct: expressed in transfected cells; host or cells: HEK293
Sequence (Q00975 whole entry): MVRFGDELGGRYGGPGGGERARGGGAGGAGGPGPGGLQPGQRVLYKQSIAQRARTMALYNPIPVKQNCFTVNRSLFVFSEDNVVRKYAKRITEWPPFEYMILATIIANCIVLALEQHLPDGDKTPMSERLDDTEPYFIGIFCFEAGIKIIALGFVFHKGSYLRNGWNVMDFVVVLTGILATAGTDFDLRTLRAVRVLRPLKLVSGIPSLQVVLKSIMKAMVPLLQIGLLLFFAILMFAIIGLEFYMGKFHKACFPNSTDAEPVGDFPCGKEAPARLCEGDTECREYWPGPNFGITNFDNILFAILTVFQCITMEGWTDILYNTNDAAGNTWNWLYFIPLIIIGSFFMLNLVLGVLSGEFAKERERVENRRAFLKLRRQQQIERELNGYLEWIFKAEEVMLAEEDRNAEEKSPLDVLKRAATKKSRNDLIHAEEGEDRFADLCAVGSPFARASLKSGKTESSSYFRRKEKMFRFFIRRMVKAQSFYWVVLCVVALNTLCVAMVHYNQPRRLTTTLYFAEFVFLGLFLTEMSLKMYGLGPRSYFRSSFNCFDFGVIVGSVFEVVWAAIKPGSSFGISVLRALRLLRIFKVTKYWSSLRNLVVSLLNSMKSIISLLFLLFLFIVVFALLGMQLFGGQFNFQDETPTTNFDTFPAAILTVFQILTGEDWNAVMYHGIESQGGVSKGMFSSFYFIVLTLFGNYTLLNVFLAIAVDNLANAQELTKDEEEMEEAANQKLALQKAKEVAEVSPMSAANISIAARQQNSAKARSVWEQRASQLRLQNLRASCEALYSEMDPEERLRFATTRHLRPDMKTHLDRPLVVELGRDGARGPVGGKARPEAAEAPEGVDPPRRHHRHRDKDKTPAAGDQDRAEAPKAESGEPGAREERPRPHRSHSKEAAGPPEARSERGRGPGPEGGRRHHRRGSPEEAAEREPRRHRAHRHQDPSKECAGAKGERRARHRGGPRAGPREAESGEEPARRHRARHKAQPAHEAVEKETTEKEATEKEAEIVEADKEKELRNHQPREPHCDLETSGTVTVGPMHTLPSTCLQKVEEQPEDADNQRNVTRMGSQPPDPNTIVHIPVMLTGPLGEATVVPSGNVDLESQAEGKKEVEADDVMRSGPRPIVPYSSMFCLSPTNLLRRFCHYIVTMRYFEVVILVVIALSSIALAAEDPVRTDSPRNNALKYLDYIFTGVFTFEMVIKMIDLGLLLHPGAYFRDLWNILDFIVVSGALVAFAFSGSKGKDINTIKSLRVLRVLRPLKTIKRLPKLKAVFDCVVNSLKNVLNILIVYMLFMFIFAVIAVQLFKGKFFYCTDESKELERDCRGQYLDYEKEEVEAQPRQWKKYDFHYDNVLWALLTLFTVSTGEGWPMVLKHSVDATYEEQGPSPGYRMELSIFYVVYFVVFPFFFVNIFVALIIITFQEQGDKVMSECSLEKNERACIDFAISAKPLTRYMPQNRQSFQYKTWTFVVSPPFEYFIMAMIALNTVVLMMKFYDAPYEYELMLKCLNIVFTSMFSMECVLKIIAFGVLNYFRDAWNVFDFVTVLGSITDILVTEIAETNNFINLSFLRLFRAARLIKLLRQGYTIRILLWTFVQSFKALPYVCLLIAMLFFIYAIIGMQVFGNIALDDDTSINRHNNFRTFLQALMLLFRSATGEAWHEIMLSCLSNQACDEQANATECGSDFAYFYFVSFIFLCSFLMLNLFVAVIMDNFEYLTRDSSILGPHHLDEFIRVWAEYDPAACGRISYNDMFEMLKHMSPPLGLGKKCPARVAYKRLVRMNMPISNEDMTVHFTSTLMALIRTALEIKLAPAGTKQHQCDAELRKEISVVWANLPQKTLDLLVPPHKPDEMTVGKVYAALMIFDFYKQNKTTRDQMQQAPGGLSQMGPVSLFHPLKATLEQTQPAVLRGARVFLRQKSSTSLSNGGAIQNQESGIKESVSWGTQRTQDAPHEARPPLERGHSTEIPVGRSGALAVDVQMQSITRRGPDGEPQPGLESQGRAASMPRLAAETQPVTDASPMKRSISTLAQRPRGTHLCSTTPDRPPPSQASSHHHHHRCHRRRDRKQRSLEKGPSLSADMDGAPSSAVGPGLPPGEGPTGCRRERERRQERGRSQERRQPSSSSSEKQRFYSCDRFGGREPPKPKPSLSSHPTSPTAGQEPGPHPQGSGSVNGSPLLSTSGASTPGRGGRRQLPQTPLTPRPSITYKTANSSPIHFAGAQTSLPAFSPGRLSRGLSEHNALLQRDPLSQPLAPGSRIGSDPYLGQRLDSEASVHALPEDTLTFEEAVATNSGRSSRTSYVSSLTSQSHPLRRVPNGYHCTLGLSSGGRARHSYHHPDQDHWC
Sequence (P54284 whole entry partner): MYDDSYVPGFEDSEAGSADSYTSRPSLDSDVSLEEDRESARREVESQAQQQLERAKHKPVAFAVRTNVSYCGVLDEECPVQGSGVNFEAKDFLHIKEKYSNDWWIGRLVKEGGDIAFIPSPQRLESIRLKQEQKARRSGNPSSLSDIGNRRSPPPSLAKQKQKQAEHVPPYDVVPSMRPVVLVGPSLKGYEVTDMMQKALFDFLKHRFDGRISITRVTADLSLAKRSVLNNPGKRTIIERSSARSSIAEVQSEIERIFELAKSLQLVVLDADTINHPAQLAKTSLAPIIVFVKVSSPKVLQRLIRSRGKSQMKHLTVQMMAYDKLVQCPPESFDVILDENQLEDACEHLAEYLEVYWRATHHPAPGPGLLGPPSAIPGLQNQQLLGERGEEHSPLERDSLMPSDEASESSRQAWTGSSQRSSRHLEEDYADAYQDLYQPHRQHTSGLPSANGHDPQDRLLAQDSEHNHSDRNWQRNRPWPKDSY
Sequence (P54289 25-946 partner limits assumed): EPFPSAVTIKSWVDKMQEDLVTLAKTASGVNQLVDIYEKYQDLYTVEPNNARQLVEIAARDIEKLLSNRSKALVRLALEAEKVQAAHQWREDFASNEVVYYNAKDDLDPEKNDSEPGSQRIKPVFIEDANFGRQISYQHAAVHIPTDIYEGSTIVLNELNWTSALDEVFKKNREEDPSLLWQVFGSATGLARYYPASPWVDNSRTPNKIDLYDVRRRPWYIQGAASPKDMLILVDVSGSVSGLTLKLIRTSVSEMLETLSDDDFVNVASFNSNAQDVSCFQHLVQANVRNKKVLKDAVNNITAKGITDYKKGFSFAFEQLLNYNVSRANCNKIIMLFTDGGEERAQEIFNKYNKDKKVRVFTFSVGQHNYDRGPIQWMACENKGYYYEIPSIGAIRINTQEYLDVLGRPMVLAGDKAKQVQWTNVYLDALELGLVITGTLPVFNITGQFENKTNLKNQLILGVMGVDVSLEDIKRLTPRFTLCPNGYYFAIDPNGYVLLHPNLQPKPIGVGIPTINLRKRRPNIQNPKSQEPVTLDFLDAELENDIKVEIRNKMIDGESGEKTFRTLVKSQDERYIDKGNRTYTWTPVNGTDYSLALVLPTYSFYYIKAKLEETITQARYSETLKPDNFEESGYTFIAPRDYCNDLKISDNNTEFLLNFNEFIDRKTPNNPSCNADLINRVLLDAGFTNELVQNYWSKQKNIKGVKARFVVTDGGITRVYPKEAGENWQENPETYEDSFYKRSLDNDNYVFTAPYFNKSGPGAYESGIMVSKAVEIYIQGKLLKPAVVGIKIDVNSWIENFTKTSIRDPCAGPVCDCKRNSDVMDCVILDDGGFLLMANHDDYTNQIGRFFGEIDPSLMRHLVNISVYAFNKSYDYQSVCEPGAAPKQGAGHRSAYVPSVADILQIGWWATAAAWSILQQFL
Sequence (P54289 947-1103 partner limits assumed): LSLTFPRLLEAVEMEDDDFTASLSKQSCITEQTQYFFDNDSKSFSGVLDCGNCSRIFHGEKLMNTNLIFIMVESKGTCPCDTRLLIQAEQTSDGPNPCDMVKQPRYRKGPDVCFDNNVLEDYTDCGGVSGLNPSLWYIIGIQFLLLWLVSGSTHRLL
Test: VIPR optical membrane potential assay with electrical stimulation
Type: cell-based
Conditions: Table 3, biological assay data; read-out: IC50
Protocol: Antagonist properties of test compounds were assessed as follows. Cells expressing the CaV of interest were placed into microtiter plates. […] The cells were stimulated with electrical means to evoke a CaV dependent membrane potential change from unblocked channels, which was detected and measured with trans-membrane potential-sensitive dyes. Antagonists were detected as a decreased membrane potential response to the stimulus. […] Allow solution to sit for 10 minutes. […] Run plate on the optical reader. […]
pIC50: −log10 of the molar value.

Observe how each entry below is paired with its result.
| Compound | Readout Value |
| --- | --- |
| CNC(=O)c1[nH]c2ccc(S(=O)(=O)N3CCC(C)CC3)cc2c1C | 4.70 to 5.30 |
| Cc1c(C(=O)NC2CC2)oc2ccc(S(=O)(=O)Nc3ccncc3)cc12 | > 4.70 |
| Cc1c(C(=O)N2CCCCC2)[nH]c2ccc(S(=O)(=O)N3CC(C)CC(C)C3)cc12 (stereo not drawn) | > 5.30 |
| CC1CCN(C(=O)c2cc3cc(S(=O)(=O)N4CCC(C)CC4)ccc3o2)CC1 | > 5.30 |
| Cc1c(C(=O)NC2CC2)oc2ccc(S(=O)(=O)N3CCCC(F)(F)C3)cc12 | 4.70 to 5.30 |

query: // fetch pIC50 given entry Cc1c(C(=O)N2CCCC2)[nH]c2ccc(S(=O)(=O)N3CCC(C)CC3)cc12
result: 4.70 to 5.30

query: // fetch pIC50 given entry Cc1c(C(=O)NCCC2CCOCC2)[nH]c2ccc(S(=O)(=O)N3CCC(C)CC3)cc12
result: 4.70 to 5.30

query: // fetch pIC50 given entry Cc1c(C(=O)NC2CCCCC2)oc2ccc(S(=O)(=O)N3CCCC(C)C3)cc12 (stereo not drawn)
result: > 5.30

* * *

Target: CaV2.2 (Homo sapiens, UniProt Q00975)
Construct: expressed in transfected cells; host or cells: HEK293
Test: VIPR optical membrane potential assay with electrical stimulation
Assay type: cell-based
Details: Table 3, biological assay data; read-out: IC50
Measurement Name: IC50

| Compound | IC50 |
| --- | --- |
| CC1CCN(S(=O)(=O)c2ccc3oc(C(=O)N4CCN(C)CC4)cc3c2)CC1 | 5 to 20 µM |

Could you now consider this next compound?
query: Quote IC50 with test system CaV2.2 (Homo sapiens, UniProt Q00975) for CC1CC(C)CN(S(=O)(=O)c2ccc3oc(C(=O)N(C(C)C)C(C)C)cc3c2)C1 (centres unmarked)
result: < 5 µM

* * *

Molecular target: CaV2.2 (Homo sapiens)
Construct: expressed in transfected cells; host or cells: HEK293
Assay: VIPR optical membrane potential assay with electrical stimulation
Format: cell-based
Settings: Table 3, biological assay data; read-out: IC50
Description: Antagonist properties of test compounds were assessed as follows. Cells expressing the CaV of interest were placed into microtiter plates. […] The cells were stimulated with electrical means to evoke a CaV dependent membrane potential change from unblocked channels, which was detected and measured with trans-membrane potential-sensitive dyes. Antagonists were detected as a decreased membrane potential response to the stimulus. […] Allow solution to sit for 10 minutes. […] Run plate on the optical reader. […]
Measurement Name: IC50

| Compound | IC50 |
| --- | --- |
| CC1CCN(S(=O)(=O)c2ccc3[nH]c(C(=O)NCC4CCOCC4)cc3c2)CC1 [compound 345] | < 5 µM |
| Cc1c(C(=O)NC2CCCC2)oc2ccc(S(=O)(=O)N3CC(C)CC(C)C3)cc12 (centres unmarked) [compound 247] | < 5 µM |
| Cc1c(C(=O)N2CCCC(C)C2)oc2ccc(S(=O)(=O)N3CCCCC3)cc12 (centres unmarked) [compound 280] | 5 to 20 µM |

query: // fetch IC50 given entry O=C(NC1CC1)c1cc2cc(N(CC3CC3)S(=O)(=O)c3ccccc3)ccc2[nH]1 [compound 105]
result: 5 to 20 µM

query: // fetch IC50 given entry O=C(NCCCc1ccccc1)c1cc2cc(S(=O)(=O)N3CCCCCC3)ccc2o1 [compound 40]
result: < 5 µM

* * *

Target: CaV2.2 (Homo sapiens)
Construct: expressed in transfected cells; host or cells: HEK293
Test: VIPR optical membrane potential assay with electrical stimulation
Format: cell-based
Settings: Table 3, biological assay data; read-out: IC50
pIC50: −log10 of the molar value.
Entries and their pIC50 values follow.

| Compound | pIC50 |
| --- | --- |
| CC1CCN(S(=O)(=O)c2ccc3oc(C(=O)N4CCCCCC4)cc3c2)CC1 [compound 246] | > 5.30 |

query: // fetch pIC50 given entry CCN(CC)S(=O)(=O)c1ccc2oc(C(=O)N(C)Cc3ccccc3)c(C)c2c1 [compound 308]
result: > 5.30

query: // fetch pIC50 given entry CC(C)NC(=O)c1cc2cc(S(=O)(=O)N3CCCCCC3)ccc2[nH]1 [compound 400]
result: > 4.70

query: // fetch pIC50 given entry Cc1c(C(=O)NC2CCCCC2)[nH]c2ccc(S(=O)(=O)N3CC(C)CC(C)C3)cc12 (centres unmarked) [compound 331]
result: > 5.30

query: // fetch pIC50 given entry CC1CCCN(C(=O)c2cc3cc(S(=O)(=O)N4CC(C)CC(C)C4)ccc3[nH]2)C1 (centres unmarked) [compound 171]
result: > 5.30

query: // fetch pIC50 given entry O=C(NC1CC1)c1cc2cc(N(C3CCCCC3)S(=O)(=O)c3ccccc3)ccc2[nH]1 [compound 270]
result: 4.70 to 5.30

query: // fetch pIC50 given entry CNC(=O)c1oc2ccc(S(=O)(=O)N3CCC(C)CC3)cc2c1C [compound 10]
result: 4.70 to 5.30

query: // fetch pIC50 given entry Cc1c(C(=O)NCc2ccc(F)cc2)oc2ccc(S(=O)(=O)N3CCC(C)CC3)cc12 [compound 154]
result: 4.70 to 5.30

* * *

Molecular target: CaV2.2 (Homo sapiens)
Construct: expressed in transfected cells; host or cells: HEK293
Assay: VIPR optical membrane potential assay with electrical stimulation
Assay type: cell-based
Settings: Table 3, biological assay data; read-out: IC50
Entries and their IC50 values follow.

Observe how each entry below is paired with its result.
| Compound | Measured Target | IC50 |
| --- | --- | --- |
| Cc1c(C(=O)N2CCCCCC2)[nH]c2ccc(S(=O)(=O)N3CC(C)CC(C)C3)cc12 (stereo not shown) [compound 362] | CaV2.2 (Homo sapiens) | < 5 µM |
| CCN(CC)S(=O)(=O)c1ccc2oc(C(=O)N(C(C)C)C(C)C)c(C)c2c1 [compound 278] | CaV2.2 (Homo sapiens) | 5 to 20 µM |
| CC1CCN(S(=O)(=O)c2ccc3oc(C(=O)NCCCc4ccccc4)cc3c2)CC1 [compound 90] | CaV2.2 (Homo sapiens) | < 5 µM |

Could you now consider this next compound?
query: // fetch IC50 given entry Cc1c(C(=O)N(C(C)C)C(C)C)oc2ccc(S(=O)(=O)N3CCCC(C)C3)cc12 (stereo not shown) [compound 263]
result: < 5 µM

* * *

Molecular target: CaV2.2 (Homo sapiens, UniProt Q00975)
Construct: expressed in transfected cells; host or cells: HEK293
Test: VIPR optical membrane potential assay with electrical stimulation
Format: cell-based
Settings: Table 3, biological assay data; read-out: IC50
Measurement Name: IC50

| Molecule | Measured Target | Readout Value |
| --- | --- | --- |
| CC1CC(C)CN(S(=O)(=O)c2ccc3oc(C(=O)N4CCN(C)CC4)cc3c2)C1 (stereo not shown) | CaV2.2 (Homo sapiens, UniProt Q00975) | 5 to 20 µM |

query: // fetch IC50 given entry CNC(=O)c1cc2cc(S(=O)(=O)N3CCCCCC3)ccc2o1
result: 5 to 20 µM

query: // fetch IC50 given entry O=C(NC1CC1)c1cc2cc(N(Cc3ccccc3)S(=O)(=O)c3ccccc3)ccc2[nH]1
result: 5 to 20 µM

query: // fetch IC50 given entry CC1CC(C)CN(S(=O)(=O)c2ccc3[nH]c(C(=O)N(C(C)C)C(C)C)cc3c2)C1 (stereo not shown)
result: < 5 µM
